Data credit: ChEMBL document CHEMBL4699484

- Measurement target: Receptor-type tyrosine-protein kinase FLT3 (Homo sapiens, UniProt P36888, ITD)
- Sequence (P36888 whole entry, looked up, change not shown): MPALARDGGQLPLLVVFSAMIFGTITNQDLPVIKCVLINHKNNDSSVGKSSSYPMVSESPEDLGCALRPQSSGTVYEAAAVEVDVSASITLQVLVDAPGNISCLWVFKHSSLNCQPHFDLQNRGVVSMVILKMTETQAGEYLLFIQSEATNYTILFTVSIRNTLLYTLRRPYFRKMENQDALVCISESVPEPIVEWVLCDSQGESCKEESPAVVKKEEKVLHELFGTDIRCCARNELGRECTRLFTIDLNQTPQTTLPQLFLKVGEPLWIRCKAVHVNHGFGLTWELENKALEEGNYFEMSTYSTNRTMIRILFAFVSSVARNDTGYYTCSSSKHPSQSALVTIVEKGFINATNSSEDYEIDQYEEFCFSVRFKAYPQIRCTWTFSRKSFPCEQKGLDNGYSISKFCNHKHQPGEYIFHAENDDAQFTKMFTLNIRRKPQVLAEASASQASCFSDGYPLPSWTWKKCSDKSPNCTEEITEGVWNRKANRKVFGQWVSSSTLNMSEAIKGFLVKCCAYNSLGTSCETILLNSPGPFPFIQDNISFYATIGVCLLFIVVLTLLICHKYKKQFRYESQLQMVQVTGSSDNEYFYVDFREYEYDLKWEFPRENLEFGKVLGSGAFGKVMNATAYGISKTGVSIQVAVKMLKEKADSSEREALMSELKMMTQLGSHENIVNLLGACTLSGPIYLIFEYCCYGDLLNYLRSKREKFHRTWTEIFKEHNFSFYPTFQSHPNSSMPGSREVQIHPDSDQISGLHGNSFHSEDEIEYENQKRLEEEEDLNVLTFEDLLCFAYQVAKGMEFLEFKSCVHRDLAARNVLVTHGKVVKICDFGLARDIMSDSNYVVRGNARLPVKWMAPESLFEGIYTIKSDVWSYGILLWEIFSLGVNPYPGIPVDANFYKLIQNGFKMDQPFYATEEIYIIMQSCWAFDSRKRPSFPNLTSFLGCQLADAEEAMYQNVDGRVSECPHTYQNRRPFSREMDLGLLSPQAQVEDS
- Format: cell-based, BaF3
- Description: Inhibition of FLT3 ITD mutant (unknown origin) expressed in mouse BaF3 cells
Quantity kind: IC50 (nM)

CC(C)(C)c1cc(NC(=O)Nc2ccc(Oc3ncnc4[nH]ncc34)c(F)c2)no1; 0.038
CC(C)(C)c1cc(NC(=O)Nc2ccc(Oc3ccnc4nc[nH]c34)c(F)c2)no1; 0.015
COc1cc2c(Oc3ccc(NC(=O)Nc4cc(C(C)(C)C)on4)cc3F)ccnc2cc1OCC1CO1 (stereo unspecified); 2650
COCCOc1cc2nccc(Oc3ccc(NC(=O)Nc4cc(C(C)(C)C)on4)cc3F)c2cc1OCCOC; 5.17

(1) COc1cc2ncnc(Oc3ccc(NC(=O)Nc4cc(C(C)(C)C)on4)cc3F)c2cc1OC
(2) COc1cc2nccc(Oc3ccc(NC(=O)Nc4cc(C(C)(C)C)on4)cc3F)c2cc1OCCCN1CCOCC1
Input: Field: lower recorded IC50 (choose 1 or 2 ) Refer to your chosen item by its label in the answer.
Output: 1
(1: 1.51 nM, 2: 5.77 nM)
